# procedure details: logP determination by HPLC (EEC directive 79/831 Annex V.A8, reversed-phase C 18)
# Assay type: physicochemical
# cond: reversed-phase HPLC column (C 18), pH 2.3, first HPLC peak of the mixture of diastereomers; reversed-phase C 18, 43° C., pH 2.3; read-out: log P1
measurement label: chromatographic logP

For orientation, consider the following solved cases.
Task: Indicate its recorded chromatographic logP; the compound in question is O=S(=O)(O)C1CC(c2ccc(Br)cc2)N=C1c1c(F)cccc1F (stereo not drawn)
Output: 1.4

Task: Indicate its recorded chromatographic logP; the compound in question is O=S(=O)(Oc1ccc([C@H]2CC(Br)C(c3c(F)cccc3F)=N2)cc1)C(F)(F)F (stereo partly drawn)
Output: 4.39

Task: Indicate its recorded chromatographic logP; the compound in question is Fc1cccc(F)c1C1=N[C@@H](c2ccc(-c3ccc(OC(F)(F)F)cc3)cc2)CC1Cl (stereo partly drawn)
Output: 5.31

Task: Indicate its recorded chromatographic logP; the compound in question is Fc1cccc(F)c1C1=NC(c2ccc(-c3ccc(OC(F)(F)F)cc3)cc2)CC1Cl (stereo not drawn)
Output: 5.31

[I] O=S(=O)(O)C1CC(c2ccc(-c3ccc(OC(F)(F)F)cc3)cc2)N=C1c1c(F)cccc1F (stereo not drawn)
[II] O=S(=O)(Oc1ccc([C@H]2CC(Cl)C(c3c(F)cccc3F)=N2)cc1)C(F)(F)F (stereo partly drawn)
Task: Which value of chromatographic logP is numerically greater: that of I or that of II ? Indicate which entry you chose by stating its label.
Output: II
(II: 4.34, I: 2.32)
